- Tested on: B. cereus (ATCC-13061)
- assay.overview: Broad-spectrum activity against Gram-Positive bacteria (MIC)
- Assay type: cell-based
- Design: unit not given here
Non-standard residues stand in square brackets, D forms with d. Residues, ends and D or L forms follow the SMILES beside them. Dip = N[C@H](C(=O)O)C(c1ccccc1)c1ccccc1; 2Nal = N[C@@H](Cc1ccc2ccccc2c1)C(=O)O
Reported values of Broad-spectrum activity B. cereus (ATCC-13061) for individual entries
property.name: Broad-spectrum activity B. cereus (ATCC-13061)

molecule	target.entity	assay.result
N=C(N)NCCC[C@@H]1NC(=O)[C@H](CCCNC(=N)N)NC(=O)[C@H](CCCNC(=N)N)NC(=O)[C@H](C(c2ccccc2)c2ccccc2)NC(=O)[C@H](C(c2ccccc2)c2ccccc2)NC(=O)[C@H](Cc2c[nH]c3ccccc23)NC1=O [IFX-020, c[Arg-Arg-Arg-Trp-Dip-Dip]] (cyclo([Dip][Dip]RRRW))	B. cereus (ATCC-13061)	3.1
N=C(N)NCCC[C@@H]1NC(=O)[C@H](CCCNC(=N)N)NC(=O)[C@H](CCCNC(=N)N)NC(=O)[C@H](C(c2ccccc2)c2ccccc2)NC(=O)[C@H](C(c2ccccc2)c2ccccc2)NC(=O)[C@H](C(c2ccccc2)c2ccccc2)NC(=O)[C@H](CCCNC(=N)N)NC1=O [IFX-008, c[Arg-Arg-Arg-Arg-Dip-Dip-Dip]] (cyclo(RRRR[Dip][Dip][Dip]))	B. cereus (ATCC-13061)	6.2
N=C(N)NCCC[C@@H]1NC(=O)[C@H](CCCNC(=N)N)NC(=O)[C@H](Cc2ccc3ccccc3c2)NC(=O)[C@H](Cc2ccc3ccccc3c2)NC(=O)[C@H](CCCNC(=N)N)NC(=O)[C@H](CCCNC(=N)N)NC(=O)[C@H](Cc2ccc3ccccc3c2)NC1=O [IFX-019, c[Arg-Arg-NaI-NaI-Arg-Arg-NaI]] (cyclo(R[2Nal]RR[2Nal][2Nal]R))	B. cereus (ATCC-13061)	1.5
N=C(N)NCCC[C@@H]1NC(=O)[C@H](CCCNC(=N)N)NC(=O)[C@H](C(c2ccccc2)c2ccccc2)NC(=O)[C@H](C(c2ccccc2)c2ccccc2)NC(=O)[C@H](CCCNC(=N)N)NC(=O)[C@H](CCCNC(=N)N)NC(=O)[C@H](C(c2ccccc2)c2ccccc2)NC1=O [IFX-016, c[Arg-Dip-Arg-Arg-Dip-Dip-Arg]] (cyclo(R[Dip]RR[Dip][Dip]R))	B. cereus (ATCC-13061)	6.2
N=C(N)NCCC[C@@H]1NC(=O)[C@H](CCCNC(=N)N)NC(=O)[C@H](C(c2ccccc2)c2ccccc2)NC(=O)[C@H](C(c2ccccc2)c2ccccc2)NC(=O)[C@H](C(c2ccccc2)c2ccccc2)NC(=O)[C@H](CCCNC(=N)N)NC1=O [IFX-002, c[Arg-Arg-Arg-Dip-Dip-Dip]] (cyclo([Dip][Dip][Dip]RRR))	B. cereus (ATCC-13061)	12.5
N=C(N)NCCC[C@@H]1NC(=O)[C@H](CCCNC(=N)N)NC(=O)[C@H](Cc2ccc3ccccc3c2)NC(=O)[C@H](Cc2ccc3ccccc3c2)NC(=O)[C@H](CCCNC(=N)N)NC(=O)[C@H](CCCNC(=N)N)NC(=O)[C@H](Cc2ccc3ccccc3c2)NC1=O [IFX-018, c[Arg-NaI-Arg-Arg-NaI-NaI-Arg]] (cyclo(R[2Nal]RR[2Nal][2Nal]R))	B. cereus (ATCC-13061)	3.1
N=C(N)NCCC[C@@H]1NC(=O)[C@H](CCCNC(=N)N)NC(=O)[C@H](C(c2ccccc2)c2ccccc2)NC(=O)[C@H](C(c2ccccc2)c2ccccc2)NC(=O)[C@H](CCCNC(=N)N)NC(=O)[C@H](CCCNC(=N)N)NC(=O)[C@H](C(c2ccccc2)c2ccccc2)NC1=O [IFX-017, c[Arg-Arg-Dip-Dip-Arg-Arg-Dip]] (cyclo(R[Dip]RR[Dip][Dip]R))	B. cereus (ATCC-13061)	6.2

* * *

- Test system: human red blood cells
- Design: unit not given beside the values
Non-standard residues stand in square brackets, D forms with d. Residues, ends and D or L forms follow the SMILES beside them. Dip = N[C@H](C(=O)O)C(c1ccccc1)c1ccccc1; d2Nal = N[C@H](Cc1ccc2ccccc2c1)C(=O)O; Dab = NCC[C@H](N)C(=O)O
List of HC50 values.

compound	target.entity	HC50
N=C(N)NCCC[C@H]1NC(=O)[C@H](Cc2c[nH]c3ccccc23)NC(=O)[C@H](Cc2c[nH]c3ccccc23)NC(=O)[C@H](Cc2c[nH]c3ccccc23)NC(=O)[C@H](Cc2c[nH]c3ccccc23)NC(=O)[C@@H](CCCNC(=N)N)NC(=O)[C@@H](CCCNC(=N)N)NC(=O)[C@@H](CCCNC(=N)N)NC1=O [IFX-036, c[arg-arg-arg-arg-Trp-Trp-Trp-Trp]] (cyclo([dR][dR][dR][dR]WWWW))	human red blood cells	600
N=C(N)NCCC[C@@H]1NC(=O)[C@H](CCN)NC(=O)[C@@H](Cc2ccc3ccccc3c2)NC(=O)[C@@H](Cc2ccc3ccccc3c2)NC(=O)[C@H](Cc2c[nH]c3ccccc23)NC(=O)[C@@H](CCCNC(=N)N)NC(=O)[C@H](CCCNC(=N)N)NC(=O)[C@H](CCN)NC(=O)[C@@H](CCCNC(=N)N)NC1=O [IFX-058, c[Dab-Arg-arg-Dab-Arg-arg-Trp-naI-naI]] (cyclo([Dab]R[dR][Dab]R[dR]W[d2Nal][d2Nal]))	human red blood cells	655
N=C(N)NCCC[C@H](NC(=O)[C@H](CCCNC(=N)N)NC(=O)[C@@H](N)CCCNC(=N)N)C(=O)N[C@H](C(=O)N[C@H](C(=O)N[C@H](C(=O)O)C(c1ccccc1)c1ccccc1)C(c1ccccc1)c1ccccc1)C(c1ccccc1)c1ccccc1 [IFX-002-1, NH2-Arg-Arg-Arg-Dip-Dip-Dip-OH] (H-RRR[Dip][Dip][Dip]-OH)	human red blood cells	265

* * *

- assay.overview: in vitro
- particulars: human, fresh human red blood cells (washed), pH 7.4
Non-standard residues stand in square brackets, D forms with d. Residues, ends and D or L forms follow the SMILES beside them. 2Nal = N[C@@H](Cc1ccc2ccccc2c1)C(=O)O; d2Nal = N[C@H](Cc1ccc2ccccc2c1)C(=O)O
property.name: HC50 at 0.5 h (µg/mL)

molecule	property.name	assay.result
NCCCC[C@H]1NC(=O)[C@@H](CCCCN)NC(=O)[C@@H](CCCCN)NC(=O)[C@@H](Cc2ccc3ccccc3c2)NC(=O)[C@@H](Cc2ccc3ccccc3c2)NC(=O)[C@@H](Cc2c[nH]c3ccccc23)NC(=O)[C@@H](CCCCN)NC1=O [IFX-130, c[lys-lys-lys-lys-trp-naI-naI]] (cyclo([d2Nal][d2Nal][dK][dK][dK][dK][dW]))	HC50 at 0.5 h	880
N=C(N)NCCC[C@@H]1NC(=O)[C@H](CCCNC(=N)N)NC(=O)[C@@H](CCCNC(=N)N)NC(=O)[C@H](CCCNC(=N)N)NC(=O)[C@H](Cc2ccc3ccccc3c2)NC(=O)[C@H](Cc2ccc3ccccc3c2)NC(=O)[C@H](Cc2c[nH]c3ccccc23)NC1=O [IFX-107, c[Arg-arg-Arg-Arg-Trp-NaI-NaI]] (cyclo([2Nal][2Nal]R[dR]RRW))	HC50 at 0.5 h	175

* * *

Quick reference for MIC P. aeruginosa ATCC 27883 among some compounds
- Tested on: Pseudomonas aeruginosa (ATCC 27883)
- particulars: ATCC 27883
Non-standard residues stand in square brackets, D forms with d. Residues, ends and D or L forms follow the SMILES beside them. dDip = N[C@@H](C(=O)O)C(c1ccccc1)c1ccccc1; d2Nal = N[C@H](Cc1ccc2ccccc2c1)C(=O)O
property.name: MIC P. aeruginosa ATCC 27883 (µg/mL)

compound	target.entity	unit.tag	assay.result
N=C(N)NCCC[C@H]1NC(=O)[C@H](Cc2c[nH]c3ccccc23)NC(=O)[C@H](Cc2c[nH]c3ccccc23)NC(=O)[C@H](Cc2c[nH]c3ccccc23)NC(=O)[C@H](Cc2c[nH]c3ccccc23)NC(=O)[C@@H](CCCNC(=N)N)NC(=O)[C@@H](CCCNC(=N)N)NC(=O)[C@@H](CCCNC(=N)N)NC1=O [IFX-036, c[arg-arg-arg-arg-Trp-Trp-Trp-Trp]] (cyclo([dR][dR][dR][dR]WWWW))	Pseudomonas aeruginosa (ATCC 27883)	µg/mL	25
N=C(N)NCCC[C@@H]1NC(=O)[C@H](CCCNC(=N)N)NC(=O)[C@H](CCCNC(=N)N)NC(=O)[C@@H](C(c2ccccc2)c2ccccc2)NC(=O)[C@@H](C(c2ccccc2)c2ccccc2)NC(=O)[C@@H](C(c2ccccc2)c2ccccc2)NC(=O)[C@H](CCCNC(=N)N)NC1=O [IFX-072, c[Arg-Arg-Arg-Arg-dip-dip-dip]] (cyclo(RRRR[dDip][dDip][dDip]))	Pseudomonas aeruginosa (ATCC 27883)	µg/mL	12.5
N=C(N)NCCC[C@@H]1NC(=O)[C@H](CCCNC(=N)N)NC(=O)[C@@H](CCCNC(=N)N)NC(=O)[C@@H](CCCNC(=N)N)NC(=O)[C@@H](Cc2ccc3ccccc3c2)NC(=O)[C@@H](Cc2ccc3ccccc3c2)NC(=O)[C@@H](Cc2c[nH]c3ccccc23)NC1=O [IFX-119, c[arg-arg-Arg-Arg-trp-naI-naI]] (cyclo([dR][dR]RR[dW][d2Nal][d2Nal]))	Pseudomonas aeruginosa (ATCC 27883)	µg/mL	32

Hey, just so you know, these numbers are from patent US20220289794A1.
